target: KRas Q61H mutant (Homo sapiens (Human), UniProt P01116, Q61H); experiment: Ras GTP binding domain inhibition assay (labeled GTP); conditions: 20 μM compound; KRas Q61H; read-out: % Inhibition at 20 μM of K-Ras mutant and wild-type protein, KRas Q61H
Sequence (P01116-2 other isoform, or with tags, fused parts or gaps Q61H): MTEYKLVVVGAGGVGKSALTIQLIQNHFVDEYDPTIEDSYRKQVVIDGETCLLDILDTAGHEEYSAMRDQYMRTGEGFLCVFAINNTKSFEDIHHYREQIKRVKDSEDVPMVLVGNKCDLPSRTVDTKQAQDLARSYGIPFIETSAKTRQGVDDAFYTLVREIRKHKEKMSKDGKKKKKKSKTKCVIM
ATTRIBUTE_MEASURED: inhibition at 20 µM

{"COMPOUND": "Oc1nc(-c2ccccn2)nc2c(-c3cnc4ccccc4c3)csc12 [drawing 3462]", "RESULT": "51 to 75%"}

Working through the 4 compounds below one at a time, give inhibition at 20 µM for each.
1. Oc1nc(-c2ccccn2)nc2cc(-c3ccccc3)sc12 [drawing 3562]
2. COC(=O)c1c(C)sc2c(O)nc(-c3ccccn3)nc12 [drawing 3473]
3. Cc1sc2c(O)nc(-c3ccccn3)nc2c1-c1ccncc1 [drawing 3497]
4. COc1cnc(CNC(=O)c2cc3nc(-c4ccccn4)nc(O)c3s2)[nH]c1=O [drawing 3521]

1: 25 to 50%; 2: 51 to 75%; 3: 51 to 75%; 4: 51 to 75%

Working through the 5 compounds below one at a time, give inhibition at 20 µM for each.
1. COc1cnc(C2(N)CCCC2)nc1O [drawing 3490]
2. OCC1(c2ccc(-c3nc(-c4ccccn4)nc(-c4ccc(C5(CO)CC5)cc4)c3Oc3ccccc3)cc2)CC1 [drawing 3532]
3. Cc1c(C(=O)N2CCN(c3ccccc3)CC2)sc2c(O)nc(-c3ccccn3)nc12 [drawing 3483]
4. COc1cnc(-c2cnc[nH]2)nc1O [drawing 3516]
5. Oc1cccc(-c2csc3c(O)nc(-c4ccccn4)nc23)n1 [drawing 3498]

["0%", "1 to 25%", "51 to 75%", "51 to 75%", "76 to 100%"]

Working through the 7 compounds below one at a time, give inhibition at 20 µM for each.
1. COc1nc(-c2ccccn2)nc2c(C3CCC3)csc12 [drawing 3480]
2. Oc1nc(-c2ccccn2)nc2c(C3CCCC3)csc12 [drawing 3495]
3. COCCNc1nc(-c2ccccn2)nc2c1c(-c1ccccc1)nn2-c1ccccn1 [drawing 3538]
4. Cc1ccc(-c2cc3nc(-c4ccccn4)nc(O)c3s2)cc1 [drawing 3555]
5. Oc1nc(-c2ccccn2)nc2c(-c3cc(CN4CCCC4)ccc3F)csc12 [drawing 3502]
6. Cn1cnc(-c2nc(O)c3c(-c4ccccc4)c(-c4ccncc4)sc3n2)c1 [drawing 3528]
7. Oc1nc(-c2ccccn2)nc2c(-c3ccccc3)c(-c3ccncc3)sc12 [drawing 3548]

1. 76 to 100%
2. 51 to 75%
3. 51 to 75%
4. 0%
5. 76 to 100%
6. 1 to 25%
7. 51 to 75%

Working through the 6 compounds below one at a time, give inhibition at 20 µM for each.
1. CC(C)c1csc2c(O)nc(-c3ccccn3)nc12 [drawing 3487]
2. COC(=O)c1nc(-c2ccccn2)nc(O)c1O [drawing 3547]
3. COCC(C)Nc1nc(-c2ccccn2)nc2sc(-c3ccncc3)c(-c3ccccc3)c12 (stereo not drawn) [drawing 3541]
4. CCC(C)c1csc2c(OC)nc(-c3ccccn3)nc12 (stereo not drawn) [drawing 3471]
5. CC(C)Oc1cnc(-c2ccccn2)nc1O [drawing 3481]
6. Cc1cc2nc(-c3ccccn3)nc(O)c2s1 [drawing 3472]

51 to 75%
51 to 75%
51 to 75%
51 to 75%
51 to 75%
51 to 75%

Find the recorded inhibition at 20 µM belonging to Oc1nc(-c2ccccn2)nc2c(C3CCCCC3)csc12 [drawing 3511] and report it.
51 to 75%

Just for reference, patent US10940139B2 is where these values come from.
